Provenance of the data: ChEMBL document CHEMBL3822370

biological target: SWI/SNF-related matrix-associated actin-dependent regulator of chromatin subfamily A member 4 (Homo sapiens); assay: Binding affinity to His6-tagged human recombinant SMARCA4 bromodomain expressed in Escherichia coli BL21(DE3)-R3-pRARE2 cells assessed as change in melting temperature at 10 uM by SyproOrange dye based DSF thermal shift assay
Sequence (P51532 whole entry): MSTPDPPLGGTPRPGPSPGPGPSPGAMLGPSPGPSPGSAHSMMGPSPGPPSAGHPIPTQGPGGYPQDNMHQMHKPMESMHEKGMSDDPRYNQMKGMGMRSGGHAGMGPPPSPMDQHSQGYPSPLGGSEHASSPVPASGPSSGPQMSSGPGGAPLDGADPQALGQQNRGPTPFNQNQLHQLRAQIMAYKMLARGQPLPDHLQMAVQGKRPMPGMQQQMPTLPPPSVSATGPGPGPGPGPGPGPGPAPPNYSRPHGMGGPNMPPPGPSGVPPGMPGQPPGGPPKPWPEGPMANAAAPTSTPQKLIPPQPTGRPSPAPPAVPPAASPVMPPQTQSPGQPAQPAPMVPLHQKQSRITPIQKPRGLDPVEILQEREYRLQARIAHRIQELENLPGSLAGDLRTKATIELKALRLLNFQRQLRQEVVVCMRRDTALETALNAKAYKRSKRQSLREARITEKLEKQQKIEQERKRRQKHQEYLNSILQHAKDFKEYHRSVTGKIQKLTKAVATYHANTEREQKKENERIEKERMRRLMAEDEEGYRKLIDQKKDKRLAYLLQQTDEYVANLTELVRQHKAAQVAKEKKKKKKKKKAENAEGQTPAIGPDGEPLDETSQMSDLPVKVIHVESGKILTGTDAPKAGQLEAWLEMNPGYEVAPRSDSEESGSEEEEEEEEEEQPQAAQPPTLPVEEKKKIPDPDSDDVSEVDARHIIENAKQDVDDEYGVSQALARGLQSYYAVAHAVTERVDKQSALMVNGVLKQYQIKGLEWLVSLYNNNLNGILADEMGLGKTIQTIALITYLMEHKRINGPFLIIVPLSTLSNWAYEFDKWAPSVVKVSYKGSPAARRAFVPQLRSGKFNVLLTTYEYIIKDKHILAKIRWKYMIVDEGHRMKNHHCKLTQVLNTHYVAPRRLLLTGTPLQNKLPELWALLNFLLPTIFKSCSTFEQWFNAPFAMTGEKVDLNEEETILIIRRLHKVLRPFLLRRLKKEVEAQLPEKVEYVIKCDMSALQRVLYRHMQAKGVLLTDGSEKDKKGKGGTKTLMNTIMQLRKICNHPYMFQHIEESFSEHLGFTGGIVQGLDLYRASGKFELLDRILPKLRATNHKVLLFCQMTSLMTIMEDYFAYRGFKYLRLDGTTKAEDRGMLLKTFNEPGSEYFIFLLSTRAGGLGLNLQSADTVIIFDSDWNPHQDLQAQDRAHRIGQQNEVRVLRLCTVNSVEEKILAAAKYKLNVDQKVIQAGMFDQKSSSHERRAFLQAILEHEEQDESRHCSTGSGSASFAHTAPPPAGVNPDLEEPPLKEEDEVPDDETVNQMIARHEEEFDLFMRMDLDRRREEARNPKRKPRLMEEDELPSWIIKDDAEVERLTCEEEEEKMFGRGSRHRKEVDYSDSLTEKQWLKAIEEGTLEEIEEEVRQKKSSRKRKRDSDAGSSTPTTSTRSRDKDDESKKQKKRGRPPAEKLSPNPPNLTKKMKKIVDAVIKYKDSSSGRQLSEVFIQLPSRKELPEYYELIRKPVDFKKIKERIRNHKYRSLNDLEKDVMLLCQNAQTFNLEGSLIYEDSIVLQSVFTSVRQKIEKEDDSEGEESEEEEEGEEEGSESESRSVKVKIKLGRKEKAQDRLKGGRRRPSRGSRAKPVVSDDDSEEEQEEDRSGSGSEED
Reported ΔTm values follow for various molecules
Give your result in °C as a bare value.

Example entries and their recorded answers appear below.
CN1CCC(/C=C2\CCn3c2nc(=O)c2c(Cl)cccc23)CC1; 1.1
CCN(/C=C1\CCn2c1nc(=O)c1c(Cl)cccc12)CC; 2.8
O=c1nc2n(c3cccc(Cl)c13)CC/C2=C\N1CCCCC1; 5.3

Provide only the value of recorded ΔTm for CCC(/C=C1\CCn2c1nc(=O)c1c(Cl)cccc12)CC
2.9

Provide only the value of recorded ΔTm for O=c1nc2n(c3cccc(Cl)c13)CC/C2=C\C1CCCCC1
2

Provide only the value of recorded ΔTm for CCN1CCN(/C=C2\CCn3c2nc(=O)c2c(Cl)cccc23)CC1
5.6

Provide only the value of recorded ΔTm for CN(C)/C=C1\CCn2c1nc(=O)c1c(Cl)cccc12
3.6
